Where do these numbers come from? They come from patent US20240368263A1.

Target: T1, human TL1A (Fitzgerald, Prod. #30R-AT070) (human, UniProt O95150 72-251, limits assumed, biotinylated with EZ-Link Sulfo-NHS-LC-Biotin where used as soluble antigen)
T1 construct: also called TNFSF15; biotinylated human TL1A
T1 sequence (looked up): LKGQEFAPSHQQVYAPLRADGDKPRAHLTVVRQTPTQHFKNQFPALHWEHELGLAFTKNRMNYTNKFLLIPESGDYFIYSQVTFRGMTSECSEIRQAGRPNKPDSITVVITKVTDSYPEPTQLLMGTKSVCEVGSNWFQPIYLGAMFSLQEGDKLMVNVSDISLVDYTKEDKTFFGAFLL
Experiment: ELISA

# Binder, binding result
measured = [
    ("L3-4 (S92H) Fab (Fab, V domains shown, Fab; also called 18-7 S92H light chain with 21-3 heavy chain) VH: QVQLVQSGAEVKKPGASVKVSCKASGFDIQDTYMHWVRQAPGQGLEWMGRIDPASGHTKYDPKFQVRVTMTRDTSTSTVYMELSSLRSEDTAVYYCARSGGLPDVWGQGTTVTVSS VL: EIVLTQSPGTLSLSPGERATLSCRASSSVSYMYWYQQKPGQAPRLLIYATSNLASGIPDRFSGSGSGTDFTLTISRLEPEDFAVYYCQQWHGNPRTFGGGTKLEIK", "binds"),
    ("H3-7 (V102Q) Fab (Fab, V domains shown, Fab; also called 21-3 V102Q heavy chain with 18-7 light chain) VH: QVQLVQSGAEVKKPGASVKVSCKASGFDIQDTYMHWVRQAPGQGLEWMGRIDPASGHTKYDPKFQVRVTMTRDTSTSTVYMELSSLRSEDTAVYYCARSGGLPDQWGQGTTVTVSS VL: EIVLTQSPGTLSLSPGERATLSCRASSSVSYMYWYQQKPGQAPRLLIYATSNLASGIPDRFSGSGSGTDFTLTISRLEPEDFAVYYCQQWSGNPRTFGGGTKLEIK", "binds"),
]
